- assay summary: Cytotoxicity by CCK8 analysis in HT-29 cells
- Format: cell-based, human
- particulars: human, HT-29 cells, 1 nm; read-out: Cell viability (%)
measurement name: viability at 12 h, 1 nM (%)
State just the number; it will be interpreted in %.

Req: Given Brc1ccc(NCc2nc3ccccc3o2)cc1 [HDL-16] , state its recorded viability at 12 h, 1 nM.
Resp: 108

###

- assay summary: Cytotoxicity by CCK8 analysis in HT-29 cells
- Format: cell-based, human
- particulars: human, HT-29 cells, 100 nm; read-out: Cell viability (%)
measurement name: viability at 12 h, 100 nM (%)
Return type: number; implicit unit %.

Req: Give the measured viability at 12 h, 100 nM of `Brc1ccc(NCc2nc3ccccc3o2)cc1` .
Resp: 109
